Data provenance: the supplement of paper PMC10201428

# System: VchCAST RNA-guided transposition machinery (E. coli BL21(DE3) host, lacZ target)
# testDescription: relative integration efficiency (T-RL orientation) vs wild-type transposon end (log2 (normalized fold change)); transposon end mutated: right end (5 bp flank + 75 bp right end); higher = more efficient transposition
measureName: relative integration efficiency (log2)
Give bare numbers.

Requested field: relative integration efficiency (log2). Item: `ACATTTGCTGATAGAACCATATAATGATAATAACACCAATAAAATGATAATTATCACACCCAATTTAACTATAACGCTCTGATCATAGTCAGACCAACATTGCTACGACCCGTATTCGCACCGACAC`
-3.5

# lookup: relative integration efficiency (log2) of `ACATTTGTTGATACAACCATAAAATGATAATTAATAATTATTTATAATCAGCAACTTACACCCATAAATTGATAATTATCAACAAACGCCCGGTCGCGGTACTCTGATCATAGTCAGACCAACATTG`
-4.47

Fill blank: measured relative integration efficiency (log2) of the sequence `ACATTTGTTGATACAACCATAAAATGATAATTACCACCCATACATTGATAATTATCACACCCATTTAACTATAACGCTCTGATCATAGTCAGACCAACATTGCTACGACCCGTATTCGCACCGACAC` is ____.
-2.43

Return reported relative integration efficiency (log2); argument: `ACATTTGTTGATACACCCATAAATTGATAATTACAACCATATATTGATATCTCTCAGTGGGTATTTAACTATAACGCTCTGATCATAGTCAGACCAACATTGCTACGACCCGTATTCGCACCGACAC`
-1.17

Turning now to a further sequence:
Can you share its relative integration efficiency (log2)? I mean this sequence: `ACATTTGTTGATACACCCATAAATTGATAATTACAACCATATATTGATATCTCTCACACCCATAAATTGATAATTACTCTGATCATAGTCAGACCAACATTGCTACGACCCGTATTCGCACCGACAC`
-0.753

###

Kindly state relative integration efficiency (log2) for each of the entries shown.
# System: VchCAST RNA-guided transposition machinery (E. coli BL21(DE3) host, lacZ target)
# testDescription: relative integration efficiency (T-LR orientation) vs wild-type transposon end (log2 (normalized fold change)); transposon end mutated: left end; higher = more efficient transposition
Give bare numbers.

Give its relative integration efficiency (log2) value. Item: `AATGTTGTTGATGCAACCATAAAGTGATATTTAATAATTATTTATAATCAGCAACTTCAACCATATATTGATATCTCACAAAACAACCATAAGTTGATATTTTAACCACAAAATGTGAATCGAGTATTTCAGCAAAACTACTGCAGTAAGAA`
-1.03

What does the record list as relative integration efficiency (log2) for `AATGTTGTTGATGCACCCATAAATTGATAATTAATAATTATTTATAATCAGCAACTTAACCACAAAACAACCATAAAGTGATATTTAACAAAAGTTGGTATTCAACTATAAAATGTGAATCGAGTATTTCAGCAAAACTACTGCAGTAAGAA` ?
-1.55

The record that follows has no relative integration efficiency (log2) shown yet.
Recorded relative integration efficiency (log2) of `AATGTTGTTGATGCAACCATAAAGTGATATTTAATAATTATTTATAATCAGCAACTTAACCACAAAATGTGAATCGAGTATTCAACCATATATTGATATCTCACAAAACAACCATAAGTTGATATTTTTCAGCAAAACTACTGCAGTAAGAA` , please.
-2.89

###

# System: VchCAST RNA-guided transposition machinery (E. coli BL21(DE3) host, lacZ target)
# testDescription: relative integration efficiency (T-RL orientation) vs wild-type transposon end (log2 (normalized fold change)); transposon end mutated: right end (5 bp flank + 75 bp right end); higher = more efficient transposition
# relative integration efficiency (log2) >= -2 gives yes, anything below gives no

Hello, I need to know if `ACATTTGTTGATACACCCATAAATTGATATTGCCACCCATAAATTGATAATTATCAGTGGGTATTTAACTATAACGCTCTGATCATAGTCAGACCAACATTGCTACGACCCGTATTCGCACCGACAC` has measured relative integration efficiency (log2) not below -2. Thanks!
yes

Determine whether this sequence has relative integration efficiency (log2) no lower than -2: `ACATTTGTTGATACAACCATAAAATGATAATTCCACCCATAAATTGATAATTCTCACACCCATAAATTGATATTGACTCTGATCATAGTCAGACCAACATTGCTACGACCCGTATTCGCACCGACAC`
yes

Check the entry `ACATTTGTTGATACAACCATAAAATGATAATTACACCCATAAATTGATAATTATCACACCCATAAATTGATATTGCCTCTGATCATAGTCAGCTGAAGCGAGACACCGACCAACATTGCACCGACAC` : does relative integration efficiency (log2) equal or exceed -2?
yes

More entries:
Textbook exercise: given the entry `ACATTTGTTGATACAACCATAAAATGATAATTACTCTGATCATCACCCATAAATTGATAATTATCAGTGGGTATTTAACTATAACGAGTCAGACCAACATTGCTACGACCCGTATTCGCACCGACAC` , state whether its relative integration efficiency (log2) is greater than or equal to -2.
no

relative integration efficiency (log2) >= -2 for `ACATTTGTTCATACAACCATAAAATGATAATTACACCCATAAATGGATCATTATCACCCCCAATTTAACTATAACGCTCTGATCATAGTCAGACCAACATTGCTACGACCCGTATTCGCACCGACAC` ?
yes

###

Give measured relative integration efficiency (log2) for each item. Keep answers brief.
# System: VchCAST RNA-guided transposition machinery (E. coli BL21(DE3) host, lacZ target)
# testDescription: relative integration efficiency (T-RL orientation) vs wild-type transposon end (log2 (normalized fold change)); transposon end mutated: left end; higher = more efficient transposition
Answers are plain numbers.

Worked cases, relative integration efficiency (log2) given:
Which relative integration efficiency (log2) value is on record for `AATGTTGTTGATGCAACCATAAAGTGATATTTATTGACAGCTAGCTCAGTCCTAGGTATAATGCTAGCAACCATATATTGATATCTCACAAAACAACCATAAGTTGATATTTTTGTGAATCGAGTATTTCAGCAAAACTACTGCAGTAAGAA` ?
-8.14

// relative integration efficiency (log2) lookup, key: `AATGTTGTTGATGCAACCATATATTGATATCTCATAATTATTTATAATCAGCAACTTAACCACAAAACAACCATATATTGATATCTCACAAAAGTTGGTATTCAACTATAAAATGTGAATCGAGTATTTCAGCAAAACTACTGCAGTAAGAA`
-3.5

Look up relative integration efficiency (log2) for the entries below, preserving their order.
1. AATGTTGTTGAAACAACCATAAAGTGATAACAACGAATCAATTAAAATCATAGGCTTAATCGAAAAACAACCATATCTTGATATCGCATAAAACAACCATAAGTTGATATTTTGGTGAAACGAGTATTTCAGCAAAACTACTGCAGTAAGAA
2. AATGTTGTTGATGCAACCATAAAGTGATATTTAATAATTATTTATAATCAGCAACTTCCAACACCCCACCAACGCGCGGTCGCGAGACACCCCACCAACGCCTGGTCGCGGGGGTGTCCGATCTGATTTCAGCAAAACTACTGCAGTAAGAA

1. 0.0434
2. -4.36

###

# System: VchCAST RNA-guided transposition machinery (E. coli BL21(DE3) host, lacZ target)
# testDescription: relative integration efficiency (T-LR orientation) vs wild-type transposon end (log2 (normalized fold change)); transposon end mutated: right end (5 bp flank + 75 bp right end); higher = more efficient transposition
Definition: the class of an entry is the range in low class: < -1; middle class: ≥ -1 and < -0.07; high class: ≥ -0.07 that contains its relative integration efficiency (log2).

Exam item: assign `ACATTTGTGGATACAACCATAAAATGATAATTACCACCCATACATTGATAATTATCACACCCATTTAACTATAACGCTCTGATCATAGTCAGACCAACATTGCTACGACCCGTATTCGCACCGACAC` to the correct category.
middle class

State the band of `ACATTAGTTCATACAACCATAAAATGATAATTACACCCATAAATTCATCATTATCACACCCAATTTAACTATAACGCTCTGATCATAGTCAGACCAACATTGCTACGACCCGTATTCGCACCGACAC`
low class

# bin lookup: classify `ACATTTGTTGATACAACCATAAAGTGATATTTACACCCATAAATTGATAATTATCACAACCATAAAATGATAATTACTCTGATCATAGTCAGACCAACATTGCTACGACCCGTATTCGCACCGACAC` by its relative integration efficiency (log2)
middle class

Class for `ACATTTGTTGATACAACCATAAAATGATAATTACACCCATAAATTGATAATTATCACACCCATAAATTGATATTGCCTCTGATAACTTCGTATAAGGTATACTATACGAAGTTATTCGCACCGACAC` ?
high class

Category of `ACATTGGTTCATACAACCATAAAATGATAATTACACCCATAAATTCATAATTATCACACCCAATTTAACTATAACGCTCTGATCATAGTCAGACCAACATTGCTACGACCCGTATTCGCACCGACAC` , please.
low class

Band for `ACATTTGTCGATACAACCATAAAATGATAATTACCACCCCTAAATTGATAATTATCACACCCATTTAACTATAACGCTCTGATCATAGTCAGACCAACATTGCTACGACCCGTATTCGCACCGACAC` ?
middle class

Textbook exercise: identify the category of the sequence given here, `ACATTTGTTGATACACCCATAAATTGATAATTACACCCATAAATTGATATTGCTCACAACCATAAAATGATAATTACTCTGATCATAGTCAGACCAACATTGCTACGACCCGTATTCGCACCGACAC` , according to its measured value.
middle class

Hello team, could you let me know which band the following sequence falls into: `ACATTTGTTGATACAACCATAAAATGATAATTAATAATTATTTATCACCCATAAATTGATAATTATCACACCCATAAATTGATATTGCCTCTGATCATAGTCAGACCAACATTGCTACGACCCGTAT`
low class

Next:
Which class is correct for the following sequence? `ACATTAGTGGATACAACCATAAAATGATAATTACACCCATAAATGGATAATTATCACACCCAATTTAACTATAACGCTCTGATCATAGTCAGACCAACATTGCTACGACCCGTATTCGCACCGACAC`
low class

Assign a category based on measured relative integration efficiency (log2) for `ACATTTGTTGATACAACCATAAAATGATAATTAATAATTATTTATAATCAGCAACACCCATAAATTGATAATTATCAACAAACGCCCGGTCGCGGTACTCTGATCATAGTCAGACCAACATTGCTAC` and give only the class name.
high class

Which bin, given its relative integration efficiency (log2), does `ACATTTGTCGATCCAACCATAAAATGATAATTACACCCATAAATTGATAATTATCACACCCAATTTAACTATAACGCTCTGATCATAGTCAGACCAACATTGCTACGACCCGTATTCGCACCGACAC` occupy?
high class

Which relative integration efficiency (log2) category applies to `ACATTTGTTGATACAACCATAAGTTGATATTTTCAACCATATATTGATATCTCTCACAACCATATATTGATATCTCCTCTGATCATAGTCAGACCAACATTGCTACGACCCGTATTCGCACCGACAC` here?
high class

Would you mind sorting `ACATTTGATGATAGAACCATTTAATGATAATAACACCCATAAAATGATAATTATCACACCCAATTTAACTATAACGCTCTGATCATAGTCAGACCAACATTGCTACGACCCGTATTCGCACCGACAC` into the appropriate category?
middle class

For the record `ACATTTGTTGATACAACCATAAAATGATAATTAATAATTATTTATAATCAGCAACTTAACCACAACACCCATAAATTGATAATTATCACACCCATAAATTGATATTGCCTCTGATCATAGTCAGACC` , report the class its relative integration efficiency (log2) corresponds to.
low class

Would you mind sorting `ACATTTGTTGATACAACCATAAAATGATAATTACACCCATAAATTGATAATTATCACACCCATAAATTGATATTGCCTCTGATCAAAATGTGAGCGAGTAACAACCTAGTCAGACCAGCACCGACAC` into the appropriate category?
middle class

The entry to classify is `ACATTTGTTGATACAACCATAAAATGATACGGCCACCCATAAATTGATACGGCTCACACCCATAAATTGATAGGTACTCTGATCATAGTCAGACCAACATTGCTACGACCCGTATTCGCACCGACAC` ; which class holds it?
high class

Please indicate the class for `ACATTTGTTGATACAACCATAAAATGATAATTACACCCATAAATTGATAATTATCACACCCATAAATTGATATTGCCTCTGATAGTACTGCGCGCCTGAATTCATCGTTAAATCGTCGCACCGACAC` based on its relative integration efficiency (log2).
high class

Each sequence maps to one class by relative integration efficiency (log2). Which class for `ACATTTGTTGATACAACCATAAGTTGATATTTTCAACCATAAGTTGATATTTTTCACAACCATAAAATGATAATTACTCTGATCATAGTCAGACCAACATTGCTACGACCCGTATTCGCACCGACAC` ?
high class
